Hey, just so you know, these numbers are from ChEMBL document CHEMBL1159261.

test: Toxicity against brine shrimp; assay type: organism-based; conditions: artemia, in vivo; read-out: LD50 (the source's name)
READOUT: LC50

[[record]]
molecule = "CCCCCCCCCCCC[C@@H](O)[C@H]1CC[C@H]([C@H](O)CCC[C@@H]2OC(C)(C)O[C@@H]2CCCCC[C@@H](O)CC2=C[C@H](C)OC2=O)O1"
readout = "LC50"
recorded_value = "0.235 µg/mL"

[[record]]
molecule = "CCCCCCCCCCCC[C@@H](O)[C@H]1CC[C@H]([C@H](O)CC[C@@H]2C[C@@H](CCCCC[C@@H](O)CC3=C[C@H](C)OC3=O)OC(C)(C)O2)O1"
readout = "LC50"
recorded_value = "0.189 µg/mL"

[[record]]
molecule = "CCCCCCCCCCCC[C@@H](O)[C@H]1CC[C@H]([C@H](O)CCC[C@H](O)[C@@H](O)CCCCC[C@@H](O)CC2=C[C@H](C)OC2=O)O1 [ANNOMURICIN C]"
readout = "LC50"
recorded_value = "0.613 µg/mL"

[[record]]
molecule = "CCCCCCCCCCCC[C@@H](O)[C@H]1CC[C@H]([C@H](O)CC[C@@H](O)C[C@H](O)CCCCC[C@@H](O)CC2=C[C@H](C)OC2=O)O1 [MURICATOCIN C]"
readout = "LC50"
recorded_value = "0.604 µg/mL"

